assay.system: HLA-B*18:01
method.notes: IEDB peptide-MHC binding, purified MHC/competitive/fluorescence; bounds were set here for any values at or beyond the usual limits of such assays
assay.setup: source organism: Homo sapiens
assay.readout: pIC50
Convention used: pIC50 is expressed as -log10 of the molar concentration.

The recorded pIC50 for entry YPDPVIKV equals 6.53

====

assay.system: HLA-A*31:01
method.notes: IEDB peptide-MHC binding, purified MHC/competitive/fluorescence; filed as Kd, often an IC50 or EC50 that approximates it; bounds were set here for any values at or beyond the usual limits of such assays
assay.setup: source organism: Orthohantavirus tulaense
assay.readout: Kd (nM)
Output spec: scalar in nM, unitless text.

The recorded Kd for entry SLMSRVVYK equals 3.1

====

assay.system: HLA-A*02:16
method.notes: IEDB peptide-MHC binding, purified MHC/direct/fluorescence; filed as Kd, often an IC50 or EC50 that approximates it; bounds were set here for any values at or beyond the usual limits of such assays
assay.setup: source organism: Choclo virus
pKd: −log10 of the molar value.
assay.readout: pKd

The recorded pKd for entry PELGAFFAI equals ≤ 4.70

====

assay.system: HLA-B*58:01
method.notes: IEDB peptide-MHC binding, purified MHC/direct/fluorescence; filed as Kd, often an IC50 or EC50 that approximates it; bounds were set here for any values at or beyond the usual limits of such assays
assay.setup: source organism: Burkholderia lata
assay.readout: pKd
Convention used: pKd is expressed as -log10 of the molar concentration.

Value (pKd, HLA-B*58:01) for record ETLWSPWKL = 5.85

====

assay.system: HLA-A*24:02
method.notes: IEDB peptide-MHC binding, purified MHC/competitive/fluorescence; filed as Kd, often an IC50 or EC50 that approximates it; bounds were set here for any values at or beyond the usual limits of such assays
assay.setup: source organism: Salmonella enterica subsp. enterica serovar Typhimurium str. LT2
assay.readout: pKd
Convention used: pKd is expressed as -log10 of the molar concentration.

Value (pKd, HLA-A*24:02) for record MVGIVHFNK = 7.37

====

assay.system: HLA-A*11:01
method.notes: IEDB peptide-MHC binding, purified MHC/competitive/radioactivity; filed as Kd, often an IC50 or EC50 that approximates it; bounds were set here for any values at or beyond the usual limits of such assays
assay.setup: source organism: Vaccinia virus WR
Listed here are sequences together with their documented Kd.
Output spec: scalar in nM, unitless text.

Examples with their reported Kd follow.
The recorded Kd for entry TFQLLNMIK equals 19.5

The recorded Kd for entry IFSPENKAFK equals 756

The recorded Kd for entry AAISKLGINY equals 357

Others:
The recorded Kd for entry VTNLISETLK equals 8.47

The recorded Kd for entry YSISNDLLY equals 337

The recorded Kd for entry STQQNKLVIR equals 2240

====

assay.system: HLA-A*29:02
method.notes: IEDB peptide-MHC binding, purified MHC/competitive/radioactivity; filed as Kd, often an IC50 or EC50 that approximates it; bounds were set here for any values at or beyond the usual limits of such assays
assay.setup: source organism: Mammarenavirus juninense
assay.readout: pKd
Convention used: pKd is expressed as -log10 of the molar concentration.

The recorded pKd for entry IAMGYVVSSF equals 5.83

====

assay.system: HLA-A*24:02
method.notes: IEDB peptide-MHC binding, purified MHC/direct/fluorescence; filed as Kd, often an IC50 or EC50 that approximates it; bounds were set here for any values at or beyond the usual limits of such assays
assay.setup: source organism: Cryptosporidium parvum Iowa II
assay.readout: Kd (nM)
Output spec: scalar in nM, unitless text.

The recorded Kd for entry IWIKLSYLW equals 10
